# System: MS2 coat protein
# Experiment summary: apparent KD of MS2 coat protein; designed switch direction (-1 OFF switch, 1 ON switch): -1; higher = weaker reporter binding
# Condition summary: input ligand: FMN 200 uM
Task for the reader: assign each of the following sequences its reported apparent KD of MS2 coat protein.
Answers are plain numbers, in nM.

See these solved cases before continuing.
[[record]]
seq_text = "AAGUCGACGGUGAGGAUAUAGGUCGAACGACCGAUCUAGAAGGCACAUGAGGAUCACCCAUGUGGGUAACGUCG [Brourd's EX4 #33] (Eterna round: R97, puzzle: Brourd's mod of Exclusion 4)"
value_observed = 29

[[record]]
seq_text = "UCACGUACAGGAUAUACAUGAGGAUCACCCAUGUGCUCGAAGGCACGCCCGAGAUUCUGUAGAAGGGUAUAGCA [Eternabot (L1) Solution 50] (Eterna round: R97, puzzle: Exclusion 3)"
value_observed = 38.4


We now examine a further sequence.
In: Could you share what apparent KD of MS2 coat protein was measured for GUCGUGUUAGGAUAUUGGCCUUUUAGAUGCACUAAGUGAGACGAGAAGGGACAUGAGGAUCACCCAUGUAAUAA [Eternabot (L1) Solution 69] (Eterna round: R97, puzzle: Exclusion 4) , tested on MS2 coat protein?
Out: 47.4
